Test system: NIH3T3
Experiment: qHTS assay to identify novel small-molecules to repurpose for Merkel cell carcinoma treatment (AID 1296009); also: nearly all actives have a fitted effect of over 60% in size
Details: MCC and control cell lines, CellTiter-Glo viability, 72 h; at 44.8 µM (top of the series) unless noted
Inconclusive results are not listed. Activity calls are given as the source filed them. Calls follow the shape of the dose curve; as a rule, active = well fitted inhibition curve with a large enough effect; inconclusive = small, poorly fitted or top-dose-only effect; inactive = flat fitted curve, though single readings scatter.
Assay Metric: outcome

molecule=C[C@@H]1C[C@@H](O)[C@@]2(CO)C(CO)=CCC[C@@H]2[C@@]12C[C@@H](c1ccoc1)OC2=O target_under_test=NIH3T3 assay_metric=outcome result=inactive
molecule="CC1(C)CC[C@]2(C(=O)O)CC[C@]3(C)C(=CCC4[C@@]5(C)C(=O)C[C@H](O)[C@@](C)(CO)C5CC[C@]43C)[C@@H]2C1 (stereo partly drawn)" target_under_test=NIH3T3 assay_metric=outcome result="inactive [at 17.4 µM]"
molecule=Cn1cc(CCn2cnc(-c3cnn(C)c3)c2-c2ccc(C#N)cc2)cn1 target_under_test=NIH3T3 assay_metric=outcome result=inactive
molecule="CC(C)[C@@H](C(=O)O)N1Cc2c(cc(O)c3c2O[C@]2(C3)[C@H](C)CCC3C(C)(C)[C@H](O)[C@H](O)C[C@@]32C)C1=O (stereo partly drawn)" target_under_test=NIH3T3 assay_metric=outcome result="inactive [at 17.4 µM]"
molecule=O=C(C[C@@H]1C(C(=O)O)=CO[C@@H](O[C@@H]2O[C@H](CO)[C@@H](O)[C@H](O)[C@H]2O)/C1=C\CO)OCCc1ccc(O)cc1 target_under_test=NIH3T3 assay_metric=outcome result="inactive [at 17.4 µM]"
molecule=Cc1onc(-c2c(Cl)cccc2Cl)c1CC(=O)NCc1ccc(OCC(F)(F)F)nc1 target_under_test=NIH3T3 assay_metric=outcome result=inactive
molecule="CCC1=C(C)C(=O)C(C)CC12C(=O)CCC2C(=O)O (stereo not drawn)" target_under_test=NIH3T3 assay_metric=outcome result=inactive
molecule=C/C1=C\CC(C)(C)/C=C/C/C(C(=O)O)=C/CC1 target_under_test=NIH3T3 assay_metric=outcome result=inactive

----------
Test: Primary qHTS for inhibitors of nuclear receptor binding SET domain protein 2 (NSD2) in an isogenic RCH-ACV NSD2 p.E1099K mutant (9B) (AID 1645876); also: nearly all actives have a fitted effect of over 70% in size; as to activity change, negative = viability loss: % is scaled to controls: 0 for no effect and ±100 for the full control effect
Settings: RCH-ACV (leukaemia line) NSD2 E1099K (9B) viability, CellTiter-Glo, 72 h; series mostly up to 44.9 µM
Records with an inconclusive call do not appear. The source made the active and inactive calls. The call rests on the fitted dose curve; in most records, active means well fitted inhibition curve with a large enough effect; inconclusive means small, poorly fitted or top-dose-only effect; inactive means flat fitted curve, though single readings scatter.
Assay Metric: activity change, negative = viability loss

compound="COc1cc(-c2ccc(O)cc2)c(OC)c(O)c1C1=CC(=O)OC1CC(=O)O (stereo unspecified)" result=inactive
compound=CC1(C)C=Cc2c(ccc3c2N=C2C(C)(C)[C@@H]4C[C@]56CCCN5C(=O)[C@@]4(C[C@]23O)NC6=O)O1 result=inactive
compound=COc1cc(O)cc(C)c1C(=O)O[C@H]1[C@@H](O)[C@@H](n2ccc(=O)[nH]c2=O)O[C@@H]1CO result=inactive
compound=C[C@]12CC[C@@H]3c4ccc(O)cc4CC[C@H]3[C@@H]1C[C@@H](O[C@@H]1O[C@H](C(=O)O)[C@@H](O)[C@H](O)[C@H]1O)[C@@H]2O result=inactive
compound="C=C(C)[C@@H]1CC[C@]2(C(=O)O)CC[C@]3(C)C(CCC4[C@]5(C)C(CC[C@]43C)C(C)(C)[C@@H](O)[C@@H]5C(=O)O)C12 (stereo partly specified)" result=inactive
compound=COc1ccnc(CCc2nc3ncccc3[nH]2)c1 result=inactive
compound="CC1=CC2=C(C)C(=O)C(C)(O)C(O)C2CO1 (stereo unspecified)" result=inactive
compound="CCCN(CCN1CCN(c2ccccc2OC)CC1)C1CCc2ncsc2C1 (stereo unspecified)" result=inactive
compound=Cc1cccc(-c2nn3c(c2-c2ccnc4ccc(C(N)=O)cc24)CCC3)n1 result=inactive
compound="C=CC(C)(O)CC/C=C(\\C)C(=O)O[C@@H]1[C@@H](O)[C@H](OC(C)(C=C)CC/C=C(\\C)C(=O)O[C@@H]2O[C@H](CO)[C@@H](O)[C@H](O)[C@H]2O)O[C@H](CO)[C@H]1OC(=O)/C(C)=C/CCC(C)(O)C=C (stereo partly specified)" result="-6.17% [at 9.23 µM] (inactive)"
compound=CCOC(=O)CSc1nc2c(sc3ccccc32)c(=O)n1CCCN1CCCC1 result=inactive
compound=O=C(/C=C/N1C[C@@H]2C[C@@H]1CN2c1ccccn1)c1ccccc1O result=inactive
compound="CC(C)C1C(OC(=O)/C=C/c2ccccc2)CC2(C)OC2CCC2(C)OC2C1O (stereo unspecified)" result=inactive
compound=Cc1cn(C[C@H](N)C(=O)O)c(=O)n(Cc2ccsc2C(=O)O)c1=O result=inactive
compound="COC(=O)C(CC1(O)c2ccccc2N2C(=O)C(C)(C)N(O)C21)n1cnc2ccccc2c1=O (stereo unspecified)" result=inactive
compound="CC(=O)/C=C/[C@H]1[C@](C)(O)[C@@H](O)[C@H](O)C2C(C)(C)CCC[C@@]21C (stereo partly specified)" result=inactive
compound="COC(=O)C1=COC(OC2OC(CO)C(O)C(O)C2O)C2C(COC(=O)/C=C/c3ccc(O)c(O)c3)C(O)C(O)C12 (stereo unspecified)" result=inactive
compound=Cc1cn2cc(CC(=O)N3CCC4(CC3)CN(Cc3ccc(-n5nccn5)cc3Cl)C4)nc2s1 result=inactive
compound="CC1(CO)CC(O)C2(C)CCC3(C)C(=CCC4C5(C=O)CCC(OC6OC(C(=O)O)C(O)C(O)C6OC6OC(C(=O)O)C(O)C(O)C6O)C(C)(C)C5CCC43C)C2C1 (stereo unspecified)" result="-5.71% [at 9.23 µM] (inactive)"
compound=COc1cc(OC)cc(-c2ccc3c(-c4ccc(F)cc4)[nH]nc3n2)c1 result=inactive
compound=Cc1nnc(-c2sc(NC(=O)[C@H](C(C)C)n3c(=O)[nH]c4ccccc4c3=O)nc2C)o1 result=inactive
compound=COc1cccc(C)c1C(=O)O[C@@H]1C[C@H](O[C@H]2[C@H](O)C[C@H](O[C@@H]3CCC[C@H]4[C@H]3C=C[C@@H]3CCCC/C=C/[C@H]5C=C(C(=O)O)[C@@H](C)C[C@@]56OC(=O)C(=C6O)OC(=O)[C@@]34C)O[C@@H]2C)O[C@H](C)[C@H]1O result="-5.35% [at 9.23 µM] (inactive)"
compound=NC[C@@H]1O[C@@H](O[C@@H]2[C@@H](O[C@@H]3O[C@H](CO)[C@@H](O)[C@H]3O)[C@H](O)[C@@H](N)C[C@H]2N)[C@@H](N)[C@H](O)[C@H]1O result="4.31% [at 9.23 µM] (inactive)"
compound=C=C1CC/C=C(/CO)C(=O)C[C@@H]2[C@@H]1C[C@@]2(C)COC(C)=O result=inactive
compound="CC1=CC(=O)CC(C)(C)C1CCC(C)O[C@@H]1O[C@H](CO)[C@@H](O)[C@H](O)[C@H]1O (stereo partly specified)" result=inactive
compound="NC(=O)C(O[C@@H]1O[C@H](CO[C@@H]2O[C@H](CO)[C@@H](O)[C@H](O)[C@H]2O)[C@@H](O)[C@H](O)[C@H]1O)c1ccccc1 (stereo partly specified)" result=inactive
compound="CC1=C(CCC(C)O[C@@H]2O[C@H](CO)[C@@H](O)[C@H](O)[C@H]2O)C(C)(C)CC(O)C1 (stereo partly specified)" result=inactive
compound=C#CCCCn1cc(-c2cccc3c2N[C@@H](C)CC(=O)N3)cn1 result=inactive
compound="CC1(C)CC[C@]2(C(=O)O[C@@H]3O[C@H](CO)[C@@H](O)[C@H](O)[C@H]3O)CC[C@]3(C)C(=CCC4[C@@]5(C)C[C@H](O)[C@H](O[C@@H]6OC[C@@H](O)[C@H](O)[C@H]6O)[C@@](C)(CO)C5CC[C@]43C)C2C1 (stereo partly specified)" result="1.45% [at 9.23 µM] (inactive)"
compound="NC1=NC2(c3cc(NC(=O)c4ccc(F)cn4)ccc3F)COCC2CS1 (stereo unspecified)" result=inactive
compound="C[C@@H]1CC2OC(=O)C3=C2C(CCC3O)[C@@]12C[C@@H](c1ccoc1)OC2=O (stereo partly specified)" result=inactive
